assay: small-molecule binders of probe aInhba, primary screen, biochemical, small-molecule microarray, 635/667 nm fluorescence (AID 1148); details: higher = more signal;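 note: score merges 667nm spot fluorescence with signal-to-noise for antibody binding to printed compounds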
Lab note: compare composite z-score against -0.1. Equal or greater, write y. Smaller, write n.

Textbook exercise: given the entry COC(=O)C1=CC(CCCO)=CC(C)N(Cc2cccc(OC(F)(F)F)c2)C=C1C(=O)OC (stereo not drawn) , state whether its composite z-score is greater than or equal to -0.1. y

Textbook exercise: given the entry CN(C)C(=O)[C@@]1(Cc2ccccc2)COC(c2ccc(OCCCO)cc2)=N1 , state whether its composite z-score is greater than or equal to -0.1. n

Textbook exercise: given the entry COc1cc(NN2C(C(O)c3cc(OC)c(OC)c(OC)c3)C=CC3C(=O)N(c4ccccc4)C(=O)C32)cc(OC)c1OC (stereo not drawn) , state whether its composite z-score is greater than or equal to -0.1. y

Textbook exercise: given the entry COC(=O)[C@@]1(Cc2ccccc2)[C@H]2c3cc(C(=O)N4CCCC4)n(CCSCCO)c3C[C@H]2CN1C(=O)c1ccccc1 , state whether its composite z-score is greater than or equal to -0.1. y

Textbook exercise: given the entry NC(=O)[C@H]1[C@@H]2C(=O)O[C@@H](c3ccccc3)[C@@H](c3ccccc3)N2[C@@H](c2ccc(O)cc2)[C@]12C(=O)Nc1ccccc12 , state whether its composite z-score is greater than or equal to -0.1. n

Textbook exercise: given the entry CCCCC(=O)N(CCN1CCOCC1)[C@@H]1CC(C(=O)NCCO)=C[C@H](Oc2c(I)cc(CO)cc2OC)[C@H]1O , state whether its composite z-score is greater than or equal to -0.1. n

Textbook exercise: given the entry [N-]=[N+]=Nc1ccccc1C[C@@]1(C(=O)O)N=C(c2ccc(OCCCO)cc2)O[C@@H]1c1ccccc1N=[N+]=[N-] , state whether its composite z-score is greater than or equal to -0.1. y

Textbook exercise: given the entry [N-]=[N+]=Nc1ccccc1C[C@]1(C(=O)NCc2ccccc2)COC(c2ccc(OCCCO)cc2)=N1 , state whether its composite z-score is greater than or equal to -0.1. n
